B1: tRNA (parent)
chain: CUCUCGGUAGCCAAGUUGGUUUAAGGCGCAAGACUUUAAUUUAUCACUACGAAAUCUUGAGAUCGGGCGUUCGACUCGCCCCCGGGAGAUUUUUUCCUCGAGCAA

Variants of: B1
Experiment: nonsense suppression (GFP-seq) (ratio to wild type); higher = more function; SUP4oc tRNA, yeast GFP reporter sort-seq
Fewer inactive variants are shown than the library holds.
Classify by measured nonsense suppression: Satisfied if it is equal to or exceeds 0.1, Not satisfied if it is smaller.

seq | label-class
CUCUCGGUAGCCAAGUUGGUUUAAGGCGCCAGACUUUAAUUUAUCACUACGAAAUCUUGAGAUCGGGCGCUCGACUCGCCCCCGGGAGAUUUUUUCCUCGAGCAA [A30C U70C] | Not satisfied
CUCUCGGUAGCCAAGUUGGUUUAAGGCGCAAGACUUUAAUUUAUCACUACGAAAACUUGAGAUCGGGCGUUCGCCUCGCCCCCGGGAAAUUUUUUCCUCGAGCAA [U55A A74C G88A] | Not satisfied
CUCUCGGUAGCCAAGUUGGUUUAAGGCGCAAGACUUUAAUUUAUCACUACGAAAUCUUGACAUCGGGCGUUCGACUCGCCCCCGGGAGCUUUUUUCCUCGAGCAA [G61C A89C] | Not satisfied
AUCUCGGUAGCCAAGUUGGUUUAAGGCGCAAGACUUUAAUUUAUCACUACGAAAUCUUGAGAUCGGGCGUUCGACUCGCUCCCGGGAGAUUUUUUCCUCGAGCAA [C1A C80U] | Not satisfied
CUCUCGUUAGCCAAGUUGGUUUAAGGCGCAAAACUUUAAUUUAUCACUACGAAAUCUUGCGAUCGGGCGUUCGGCUCGCCCCCGGGAGAUUUUUUCCUCGAGCAA [G7U G32A A60C A74G] | Not satisfied
CUCUCGGUAGCCAAGUCGGUUCAAGGCGCAAGACUUUAAUUUAUCACUACGAAAUCUUGGGAUCGGGCGUUCGACUCGCCCCCGGGAGAUUUUUUCCUCGAGCAA [U17C U22C A60G] | Satisfied
CUCUCGGUAGCCAACUGGCUUUAAUGCGCAAGACUUUAAUUUAUCACUACGAAAUCUUGAGAUCGGGCGUUCGACUCGCCCCCGGGAGAUUUUUUCCUCGAGCAA [G15C U17G G19C G25U] | Not satisfied
CUCUCGGUAGCUAAGUUGGUUUAAGGCGCAAGACUUUAAUUUAUCACUACGAAAUCUUGAGAUCGGGCGUUCGACUCACCCCCGGGAGAUUUUUUCCUCGAGCAA [C12U G78A] | Not satisfied
CUCUCGGUAGCCGAGUUGGUUUAAGGCGCAAGACUUUAAUUUAUCACUACGAAAUCUUGAGAUCGGGUGUUCGACUCGCCCCCGGGAGAUUUUUUCCUCGAGCAA [A13G C68U] | Satisfied
CUCUCGGUAGCUAAGUUGGUUUAACGCGCAAGACUUUAAUUUAUCACUACGAAAUCUUGAGAUCGGGCGUUCGACUCGCCCCCGGGAGAUUUUUUCCUCGAGCAA [C12U G25C] | Satisfied
CUCUCGGUAGCCAAGUUGGCUUAAGGCGCAAGACUUUAAUUUAUCACUACGAAAUCUUGAGAUCGGGCGUUGGACUCGCCCCCGGGAGAUUUUUUCCUCGAGCAA [U20C C72G] | Not satisfied
CUCUCGGUAGCCAAGUUGGUAUAAGGCGAAAGACUUUAAUUUAUCACUACGAAAUCUUGAGAUCGGGCGUUCGACUCGUCCCCGGGAGAUUUUUUCCUCGAGCAA [U21A C29A C79U] | Not satisfied
CUCUCGGUAGCCAAGUUGGUUUAAGGCGCAAGAUUUUAAUUUAUCACUACGAAAUCUUGAGAUCAGGCGAUCGACUCGCCCCCGGGAGAUUUUUUCCUCGAGCAA [C34U G65A U70A] | Not satisfied
